Biological target: Calcium-dependent protein kinase 4 (Plasmodium falciparum (isolate 3D7)) (UniProt Q8IBS5)
Sequence (Q8IBS5 whole entry, looked up): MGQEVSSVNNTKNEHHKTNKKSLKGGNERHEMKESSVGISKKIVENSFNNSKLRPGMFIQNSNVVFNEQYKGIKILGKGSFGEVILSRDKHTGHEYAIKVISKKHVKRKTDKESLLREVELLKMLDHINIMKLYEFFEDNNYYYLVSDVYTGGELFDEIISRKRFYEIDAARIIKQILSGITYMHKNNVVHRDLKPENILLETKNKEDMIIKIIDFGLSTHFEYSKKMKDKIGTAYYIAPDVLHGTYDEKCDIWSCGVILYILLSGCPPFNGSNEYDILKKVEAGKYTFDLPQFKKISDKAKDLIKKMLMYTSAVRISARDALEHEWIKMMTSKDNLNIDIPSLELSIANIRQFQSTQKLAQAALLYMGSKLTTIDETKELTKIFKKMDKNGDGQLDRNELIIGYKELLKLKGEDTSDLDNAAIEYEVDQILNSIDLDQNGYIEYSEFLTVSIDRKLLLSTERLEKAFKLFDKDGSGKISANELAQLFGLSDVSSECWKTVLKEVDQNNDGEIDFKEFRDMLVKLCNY
Assay: PfCDPK4 kinase inhibitors, biochemical, TCAMS library (AID 1159588)
Conditions: recombinant PfCDPK4, Kinase-Glo ATP depletion luminescence
Results with a measured potency or affinity are listed apart. Active and inactive are the calls of the source. The limit is not given here; nearly all actives have IC50 up to about 0.91 µM.

| SMILES_TEXT | TARGET_OR_TEST_SYSTEM | outcome |
| --- | --- | --- |
| O=C(Nc1ccc2c(c1)OCO2)c1cc(-c2cccnc2)nc2ccc(Cl)cc12 | Calcium-dependent protein kinase 4 (Plasmodium falciparum (isolate 3D7)) (UniProt Q8IBS5) | inactive |
| COc1ccc(CNC2CCN(C)CC2)cc1-c1ccc(S(=O)(=O)NCc2ccccc2)s1 | Calcium-dependent protein kinase 4 (Plasmodium falciparum (isolate 3D7)) (UniProt Q8IBS5) | inactive |
| Cc1ccccc1Nc1nc(NCc2ccccc2)nc2ccccc12 | Calcium-dependent protein kinase 4 (Plasmodium falciparum (isolate 3D7)) (UniProt Q8IBS5) | inactive |

###

Test: human hepatoma cell viability loss – ATP luminescence, cytotoxicity control for P. falciparum antimalarial project, primary screen (AID 2303);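 also: 0% = DMSO wells and 100% = digitonin-killed cells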
Settings: HepG2 viability, 24-48 h, at 10 µM, active compounds read high
PROPERTY_MEASURED: inhibition (%)
Express the result in % but write the number alone.

GET /values?readout=inhibition&item= `COc1ccc2nccc([C@H](O)CN3CCC(NCc4cc(C)c5c(c4)OCCO5)CC3)c2n1`
12

GET /values?readout=inhibition&item= `CCCCCCN(CCCCCC)CCCCNc1c2ccc(Cl)cc2nc2ccc(OC)cc12`
65

GET /values?readout=inhibition&item= `Cc1ccc(Nc2nc(NN=Cc3cccc(O)c3)nc(Nc3ccc([N+](=O)[O-])cc3)n2)cc1C`
-2

GET /values?readout=inhibition&item= `CCn1ccc2c3c(N)nc(N)nc3ccc21`
61

GET /values?readout=inhibition&item= `Cc1nc(-c2cccc(NCc3ccccc3)c2)[nH]c1C`
16

GET /values?readout=inhibition&item= `Nc1nc(N)c2c(ccc3c2ccn3C2CCCCC2)n1`
67

GET /values?readout=inhibition&item= `O=C(Nc1cccc(-c2cccc(-c3nc4ccc(C(F)(F)F)cc4[nH]3)c2)c1)c1ccc(=O)[nH]n1`
63

GET /values?readout=inhibition&item= Cc1ccc(NC(=O)c2ccc(NCCCN3CC(C)CC(C)C3)c([N+](=O)[O-])c2)cc1F (centres undefined)
18

GET /values?readout=inhibition&item= `CCCc1cc(C(=O)N[C@@H](Cc2ccccc2)[C@H](O)CNC(C)C)c(F)c(N2CCCC2=O)c1`
-2

###

Target: L-lactate dehydrogenase (Plasmodium falciparum (isolate CDC / Honduras)) (UniProt Q27743)
Sequence (Q27743 whole entry, looked up): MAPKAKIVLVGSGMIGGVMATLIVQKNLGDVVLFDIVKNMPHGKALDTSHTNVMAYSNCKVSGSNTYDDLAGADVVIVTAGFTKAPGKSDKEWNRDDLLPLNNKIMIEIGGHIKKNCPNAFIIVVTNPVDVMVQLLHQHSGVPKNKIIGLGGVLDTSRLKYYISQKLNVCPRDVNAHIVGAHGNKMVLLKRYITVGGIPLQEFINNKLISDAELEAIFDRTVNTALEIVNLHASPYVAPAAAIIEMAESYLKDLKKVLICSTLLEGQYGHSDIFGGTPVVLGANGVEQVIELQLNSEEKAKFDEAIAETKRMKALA
Assay: PfLDH activity inhibition – cell lysate, 3D7 strain, counter-screen for P. falciparum growth inhibition project (AID 2304);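 also: 0% = vehicle and 100% = reference inhibitor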
Conditions: P. falciparum 3D7 crude extract, LDH APAD/NBT absorbance; at 2 µM; active compounds read high
PROPERTY_MEASURED: inhibition (%)
Express the result in % but write the number alone.

GET /values?readout=inhibition&item= `O=C(c1ccc([N+](=O)[O-])o1)N1CCC(c2cn(Cc3cccc(F)c3)c3ccccc23)CC1`
-2

GET /values?readout=inhibition&item= `C(=NNc1ccnc2ccccc12)c1ccncc1`
-2

GET /values?readout=inhibition&item= `CCNc1cc(C(=O)N[C@@H](Cc2ccccc2)[C@H](O)CN[C@H](C)c2ccccc2)cc(N2CCCC2=O)c1`
6

GET /values?readout=inhibition&item= `Oc1ccc(CCNc2nc(NCCCOc3ccccc3-c3ccc(C(F)(F)F)cc3)nc(N3CCNCC3)n2)cc1`
0

GET /values?readout=inhibition&item= `Cc1cccc2[nH]c(-c3ccc(-c4cccc(NC(=O)NCc5ccccc5)c4)cc3)nc12`
-6

GET /values?readout=inhibition&item= `CS(=O)(=O)CCNCc1cccc(-c2cc3c(Nc4ccc(OCc5ccccc5)cc4)ncnc3cn2)c1`
2

GET /values?readout=inhibition&item= `O=C(/C=C/c1ccc(Cl)c(Cl)c1)NCCCCCN1CCC(NC(=O)c2ccc(F)cc2)CC1`
-1

GET /values?readout=inhibition&item= `O=C(NCCCCN1CCC(c2ccc3c(c2OC(=O)c2ccc(NC(=O)c4ccc(Cl)cc4)cc2)CCCC3)CC1)c1ccc(NC(=O)c2ccc(Cl)cc2)cc1`
-2

GET /values?readout=inhibition&item= COc1ccc2nccc(N3CCC(SCCNCc4ccc5c(n4)NC(=O)CO5)C3)c2n1 (stereo unspecified)
-2

GET /values?readout=inhibition&item= Cn1cnc(-c2ccc3c(c2)CCN(CCC2CCC(NC(=O)/C=C/c4ccc(F)cc4)CC2)CC3)c1 (stereo unspecified)
4

GET /values?readout=inhibition&item= `O=C(Nc1ccccc1)Nc1ccc(-c2cccc(-c3nc4ccc(C(F)(F)F)cc4[nH]3)c2)cc1`
4

The measurements presented in this section are drawn from PubChem BioAssay.
